The reported measurements were obtained from patent US20230407243A1.

system: ΔtolC-Pore; assay: microbe, parasite or virus in culture; type: cell-based, Escherichia coli; settings: Escherichia coli, 18 h, read-out: Minimum inhibitory concentration, ΔtolC-Pore
Documented MIC across a set of compounds
recorded-endpoint: MIC

INSERT INTO measurements (compound, tested_on, recorded_endpoint, value) VALUES
  ('CO[C@H]1/C=C/O[C@@]2(C)Oc3c(C)c(O)c4c(O)c(c(/C=N/N5CCN(C)CC5)c(O)c4c3C2=O)NC(=O)/C(C)=C\C=C\[C@H](C)[C@H](O)[C@@H](C)[C@@H](O)[C@@H](C)[C@H](OC(C)=O)[C@@H]1C [rifampicin]', 'ΔtolC-Pore', 'MIC', '0.391 µg/mL'),
  ('CO[C@@H]1[C@@H](OC(N)=O)[C@@H](O)[C@H](Oc2ccc3c(O)c(NC(=O)c4ccc(O)c(CC=C(C)C)c4)c(=O)oc3c2C)OC1(C)C [novobiocin]', 'ΔtolC-Pore', 'MIC', '0.391 µg/mL'),
  ('CC(=O)O[C@H]1C[C@@]2(C)[C@@H](C[C@@H](O)[C@H]3[C@@]4(C)CC[C@@H](O)[C@@H](C)[C@@H]4CC[C@@]32C)/C1=C(\CCC=C(C)C)C(=O)O [fusidic acid]', 'ΔtolC-Pore', 'MIC', '0.391 µg/mL');
